Hi there, I'd appreciate the recorded pIC50 for every entry that follows.
# Assay target: Core 2 GlcNAc-T (Homo sapiens, UniProt Q02742)
# Sequence (Q02742 1-428): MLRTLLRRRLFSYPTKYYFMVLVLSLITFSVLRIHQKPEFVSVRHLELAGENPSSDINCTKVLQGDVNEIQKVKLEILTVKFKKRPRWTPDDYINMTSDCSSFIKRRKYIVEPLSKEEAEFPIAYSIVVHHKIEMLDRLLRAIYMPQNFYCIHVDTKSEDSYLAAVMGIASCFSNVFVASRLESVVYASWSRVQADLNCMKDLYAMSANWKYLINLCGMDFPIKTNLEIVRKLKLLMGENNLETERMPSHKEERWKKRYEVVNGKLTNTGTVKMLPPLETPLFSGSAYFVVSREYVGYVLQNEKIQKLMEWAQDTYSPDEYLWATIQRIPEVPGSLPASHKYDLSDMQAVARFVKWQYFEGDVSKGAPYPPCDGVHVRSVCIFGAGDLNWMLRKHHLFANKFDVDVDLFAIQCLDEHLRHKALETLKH
# Test name: Cell based assay of core 2 GlcNAc-T activity in human leukocytes (U937 cells)
# Condition details: read-out: Approximate Ic50 values, Cell based assay
The meaning of pIC50 here: minus log10 of the concentration in molar units.

Give pIC50 (Core 2 GlcNAc-T (Homo sapiens, UniProt Q02742)) of the following molecule: C[C@@H]1CC[C@@]2(OC1)O[C@H]1C[C@H]3[C@@H]4CC=C5C[C@@H](O[C@@H]6O[C@H](CO)[C@@H](O)[C@H](O[C@@H]7O[C@H](CO)[C@@H](O)[C@H](O)[C@H]7O)[C@H]6O[C@@H]6O[C@@H](C)[C@H](O)[C@@H](O)[C@H]6O)CC[C@]5(C)[C@H]4CC[C@]3(C)[C@H]1[C@@H]2C
8.60

Give pIC50 (Core 2 GlcNAc-T (Homo sapiens, UniProt Q02742)) of the following molecule: C[C@@H](CC[C@@]1(O)O[C@H]2C[C@H]3[C@@H]4CC[C@@H]5C[C@@H](O[C@@H]6O[C@H](CO)[C@@H](O[C@@H]7O[C@H](CO)[C@@H](O)[C@H](O)[C@H]7O)[C@H](O)[C@H]6O[C@@H]6O[C@@H](C)[C@H](O)[C@@H](O)[C@H]6O)CC[C@]5(C)[C@H]4CC[C@]3(C)[C@H]2[C@@H]1C)CO[C@@H]1O[C@H](CO)[C@@H](O)[C@H](O)[C@H]1O
9.12

Give pIC50 (Core 2 GlcNAc-T (Homo sapiens, UniProt Q02742)) of the following molecule: CC1=C(CC[C@@H](C)CO[C@@H]2O[C@H](CO)[C@@H](O)[C@H](O)[C@H]2O)O[C@H]2C[C@H]3[C@@H]4CC=C5C[C@@H](O[C@@H]6O[C@H](CO)[C@@H](O[C@@H]7O[C@@H](C)[C@H](O)[C@@H](O)[C@H]7O)[C@H](O)[C@H]6O[C@@H]6O[C@@H](C)[C@H](O)[C@@H](O)[C@H]6O)CC[C@]5(C)[C@H]4CC[C@]3(C)[C@@H]12
7.30

Give pIC50 (Core 2 GlcNAc-T (Homo sapiens, UniProt Q02742)) of the following molecule: C[C@@H](CCC1(O)O[C@H]2C[C@H]3[C@@H]4CC=C5C[C@@H](O[C@@H]6O[C@H](CO)[C@@H](O[C@@H]7O[C@H](CO)[C@@H](O)[C@H](O)[C@H]7O)[C@H](O)[C@H]6O[C@@H]6O[C@@H](C)[C@H](O)[C@@H](O)[C@H]6O)CC[C@]5(C)[C@H]4CC[C@]3(C)[C@H]2[C@@H]1C)CO[C@@H]1O[C@H](CO)[C@@H](O)[C@H](O)[C@H]1O (some centres unmarked) [Trigoneoside IVa]
7.12

Give pIC50 (Core 2 GlcNAc-T (Homo sapiens, UniProt Q02742)) of the following molecule: C[C@H](CC[C@@]1(O)O[C@H]2C[C@H]3[C@@H]4CC=C5C[C@@H](O[C@@H]6O[C@H](CO)[C@@H](O)[C@H](O[C@@H]7O[C@H](CO)[C@@H](O)[C@H](O)[C@H]7O)[C@H]6O[C@@H]6O[C@@H](C)[C@H](O)[C@@H](O)[C@H]6O)CC[C@]5(C)[C@H]4CC[C@]3(C)[C@H]2[C@@H]1C)CO[C@@H]1O[C@H](CO)[C@@H](O)[C@H](O)[C@H]1O
9.60
